Tested on: cryopreserved hepatocytes from rat
method-notes: Metabolism of compounds in hepatocyte suspensions (prodrug hydrolysis), rat
Format: in vitro ADME
condition: prodrug 1 μM, rat hepatocytes 1×10^6 cells/mL, 37° C.
Method: Selected compounds of the present invention (1 μM) were incubated with suspensions of cryopreserved hepatocytes from rat, dog and human subjects at a cell density of 1×10^6 cells/mL. […] The supernatants were transferred to clean plates and analyzed using LC-MS/MS. Following quantification of prodrug and parent in the samples, half lives of conversion (t1/2) were determined from the rates of prodrug degradation according to first-order kinetics. […]
# strict inequality: Remaining at 90 min, Rat < 4% yields class 1, everything else yields class 0

{"compound": "CC(=O)OC(Oc1c(C(=O)NCc2ccc(F)cc2)nc(C(C)(C)NC(=O)c2nnc(C)o2)n(C)c1=O)C(C)C (stereo not shown)", "assigned-label": "class 0"}
{"compound": "CCOC(=O)OC(CC)Oc1c(C(=O)NCc2ccc(F)cc2)nc(C(C)(C)NC(=O)c2nnc(C)o2)n(C)c1=O (stereo not shown)", "assigned-label": "class 0"}
{"compound": "CCCCOC(=O)OC(C)Oc1c(C(=O)NCc2ccc(F)cc2)nc(C(C)(C)NC(=O)c2nnc(C)o2)n(C)c1=O (stereo not shown)", "assigned-label": "class 1"}
{"compound": "Cc1nnc(C(=O)NC(C)(C)c2nc(C(=O)NCc3ccc(F)cc3)c(OCOC(=O)C(C)(C)C)c(=O)n2C)o1", "assigned-label": "class 1"}
{"compound": "CCOC(=O)OC(C)Oc1c(C(=O)NCc2ccc(F)cc2)nc(C(C)(C)NC(=O)c2nnc(C)o2)n(C)c1=O (stereo not shown)", "assigned-label": "class 0"}
{"compound": "Cc1nnc(C(=O)NC(C)(C)c2nc(C(=O)NCc3ccc(F)cc3)c(OCOC(=O)OC(C)C)c(=O)n2C)o1", "assigned-label": "class 1"}
{"compound": "Cc1nnc(C(=O)NC(C)(C)c2nc(C(=O)NCc3ccc(F)cc3)c(OC(OC(=O)OC(C)C)C(C)C)c(=O)n2C)o1 (stereo not shown)", "assigned-label": "class 0"}
